Molecular target: T1, Cynomolgus monkey latent myostatin (cynomolgus monkey, UniProt Q95J86 25-266; Q95J86 267-375)
T1 construct: Latent form = complex of two propeptides and the mature dimer; also called Cyno latent myostatin
T1 sequence 1: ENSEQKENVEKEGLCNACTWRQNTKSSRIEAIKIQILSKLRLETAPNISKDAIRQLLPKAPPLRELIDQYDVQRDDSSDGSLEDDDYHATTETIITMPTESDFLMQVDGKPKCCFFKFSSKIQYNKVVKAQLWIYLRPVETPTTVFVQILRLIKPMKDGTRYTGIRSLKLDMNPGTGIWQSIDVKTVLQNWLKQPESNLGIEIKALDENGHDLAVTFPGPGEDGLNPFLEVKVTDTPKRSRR
T1 sequence 2: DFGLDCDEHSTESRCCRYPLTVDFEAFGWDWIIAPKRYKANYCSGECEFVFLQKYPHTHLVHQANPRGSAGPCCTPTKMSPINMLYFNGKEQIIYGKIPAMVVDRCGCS
Assay: SPR 37C; KD pH 5.8 / KD pH 7.4
REPORTED_METRIC: ratio of KD at pH 5.8/pH 7.4
Just the number, please.

- BINDER: "MS_M103205H1004-SG1/M103202L889-SK1 (antibody, human IgG1, kappa, V domains shown, also called MS1032LO07-SG1) VH: QVTLKESGPVLVKPTETLTLTCTVSGIDLSHDDISWVRQAPGKGLEWVGIISYAGSMYYASWAKGRLTISKDTSKNQVVLTMTNMDPVDTATYYCARGVPAYSHGGDKWGQGTLVTVSS VL: DIVMTQSPATLSLSPGERATLSCTSSQSVYHANWLSWFQQKPGQPPKLLIYWASTLAYGVPSRFSGSGSGTDFTLTISSLQPEDAATYYCAGGYGGGRYAFGQGTKVEIKR"
  ratio of KD at pH 5.8/pH 7.4: 102
- BINDER: "MS_M103240H1246-SG1/M103202L1045-SK1 (antibody, human IgG1, kappa, V domains shown, also called MS1032LO25-SG1) VH: QVQLVESGGGLVQPGGSLRLSCAVSGIDLSHEDISWVRQAPGKGLEWVSIISYAGSKYYASWAKGRLTISKDTSKNQVVLTMTNMDPVDTATYYCARGVPAYSHGGDLWGQGTLVTVSS VL: DIVMTQSPATLSLSPGERATLSCTTSQSVYHENWLSWFQQKPGQPPKLLIYWASTLAYGVPSRFSGSGSGTDFTLTISSLQPEDAATYYCAGGYGGGRYAFGQGTKVEIKR"
  ratio of KD at pH 5.8/pH 7.4: 41
- BINDER: "MS_M103245H795-SG1/M103202L1045-SK1 (antibody, human IgG1, kappa, V domains shown, also called MS1032LO21-SG1) VH: QVTLKESGPVLVKPTETLTLTCKVSGIDLSHDDISWVRQAPGKGLEWVSIISYAGSTYYASWAKGRLTISKDTSKNQVVLTMTNMDPVDTATYYCARGVPAYSHGGDLWGQGTLVTVSS VL: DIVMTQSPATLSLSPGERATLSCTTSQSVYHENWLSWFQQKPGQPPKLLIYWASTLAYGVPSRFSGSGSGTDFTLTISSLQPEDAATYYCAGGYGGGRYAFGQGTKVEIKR"
  ratio of KD at pH 5.8/pH 7.4: 100

Could you now consider this next binder?
Recall and state the measured ratio of KD at pH 5.8/pH 7.4 for MS_M103205H1795-SG1/M103202L1060-SK1 (antibody, human IgG1, kappa, V domains shown, also called MS1032LO24-SG1) VH: QVTLKESGPVLVKPTETLTLTCTVSGIDLSHDDISWVRQAPGKGLEWVGIISYAGSTYYASWAKGRLTISKDTSKNQVVLTMTNMDPVDTATYYCARGVPAYSHGGDLWGQGTLVTVSS VL: DIVMTQSPATLSLSPGERATLSCTSSQSVFHENWLSWFQQKPGQPPKLLIYWASTLAWGVPSRFSGSGSGTDFTLTISSLQPEDAATYYCAGGYGGGRYAFGQGTKVEIKR .
5
